assay_target: UniProt:P0A881
test_method_notes: isothermal titration calorimetry
observable: pKd
Answers are plain numbers, as −log10 of the molar value.

- O=C(O)Cc1c[nH]c2ccccc12: 3.79
- O=C(O)CCCc1c[nH]c2ccccc12: 4.49
- N[C@@H](Cc1c[nH]c2ccccc12)C(=O)O: 4.39

Go through the list and state pKd for each entry.
1. O=C(O)CCc1c[nH]c2ccccc12
2. Cc1ccc2[nH]cc(CC(N)C(=O)O)c2c1 (racemic)

[4.48, 4.21]
